System: biotinyl-Leu-oxazolone
procedure-text: self-aminoacylation, catalytic enhancement (BLO) (fold over background); higher = more active; k-Seq, kA / k0A0; sequences stand for … in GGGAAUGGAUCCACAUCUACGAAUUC…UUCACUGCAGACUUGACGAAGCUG
Fewer inactive variants are shown than the library holds.
Known self-aminoacylation of a selection of sequences
Respond with the number and no other words.

AUUAGCCUGGUAAUCGAGUGA [Fam2.1 aminoacylation ribozyme variant] : 13.3
CCACACUUCAAGUAAUCCGUC [Fam1B.1 aminoacylation ribozyme variant] : 0.839
UUUCACCGAGGUCAUCGGGUG [Fam2.2 aminoacylation ribozyme variant] : 6.07

Can you share its self-aminoacylation? I mean this sequence: AUUCACCUCGAUCAUCGGGUG [Fam2.2 aminoacylation ribozyme variant]
5.94

* * *

Test system: biotinyl-Leu-oxazolone
procedure-text: self-aminoacylation, catalytic enhancement (BLO) (fold over background); higher = more active; k-Seq, kA / k0A0; sequences stand for … in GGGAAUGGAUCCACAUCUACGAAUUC…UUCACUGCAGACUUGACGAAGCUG
Variants at the floor of the assay were thinned out.
Form field: self-aminoacylation (one value per entry).
Answer as a number with no unit attached.

Previously resolved entries follow.
CCAAACCUCAAGCAAUCGGUC [Fam1B.1 aminoacylation ribozyme variant] : 1.27
CUACUUCAAACAAUAGGUCUA [Fam1A.1 aminoacylation ribozyme variant] : 0.639
CUUCACCUAGGUCAUCGUGUG [Fam2.2 aminoacylation ribozyme variant] : 1.39

Quick one: self-aminoacylation of AAAUUUUCUAAUAGUCGCAAG [Fam3.1 aminoacylation ribozyme variant] ?
2.46

* * *

self-aminoacylation by entry:
Test system: biotinyl-Met-oxazolone
procedure-text: self-aminoacylation, catalytic enhancement (BMO) (fold over background); higher = more active; k-Seq, kA / k0A0; sequences stand for … in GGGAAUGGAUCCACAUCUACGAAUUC…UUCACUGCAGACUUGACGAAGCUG
Fewer inactive variants are shown than the library holds.
Just the number.

AAUCACCUAGGUCAGCGGGUG [Fam2.2 aminoacylation ribozyme variant] : 4.61

Switching to the query record.
Quick one: self-aminoacylation for AUUUCCCUGGACAUCGAGUGA [Fam2.1 aminoacylation ribozyme variant] ?
6.51

* * *

Recorded self-aminoacylation, one value per entry.
Tested on: biotinyl-Met-oxazolone
procedure-text: self-aminoacylation, catalytic enhancement (BMO) (fold over background); higher = more active; k-Seq, kA / k0A0; sequences stand for … in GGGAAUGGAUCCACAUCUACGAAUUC…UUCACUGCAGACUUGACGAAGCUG
Fewer inactive variants are shown than the library holds.
// print number alone

Below, each entry is followed by its recorded self-aminoacylation result.
AGUCACCAAGGUCAUCGGGUG [Fam2.2 aminoacylation ribozyme variant] : 6.59
CUACUUCAAACAAUCGGCCUC [Fam1A.1 aminoacylation ribozyme variant] : 1.63
AUUAACCUAGGUCGUCGGGUG [Fam2.2 aminoacylation ribozyme variant] : 1.7
AUGUCCCUGGUCAUCGAGUGA [Fam2.1 aminoacylation ribozyme variant] : 44.2
AAGUUUGCGAAUGGUCGCAAG [Fam3.1 aminoacylation ribozyme variant] : 0.97
AAGUUAGCUAAUAGUCGCAGG [Fam3.1 aminoacylation ribozyme variant] : 1.6
AGUCACAUAGGUCAUCGGGUG [Fam2.2 aminoacylation ribozyme variant] : 8.54
AUUACCCUAGGUCAUCGGGUG [Fam2.2 aminoacylation ribozyme variant] : 8.02
AUUCACCUACGUCAUCGUGUG [Fam2.2 aminoacylation ribozyme variant] : 0.602
AGGUUUGCUAGUAGUCGCAAG [Fam3.1 aminoacylation ribozyme variant] : 0.787

Could you tell me which self-aminoacylation is on file for CUACGUCACACAAUCGGUCUG [Fam1A.1 aminoacylation ribozyme variant] ?
0.943
